Data provenance is paper PMC9789325.

target: ACE (Oryctolagus cuniculus, UniProt P12822); construct: the angiotensin-I-converting enzyme from rabbit lung (2 units/mg protein); purchased Sigma Chemical Co. (St. Louis, MO, USA); host or cells: rabbit lung (tissue-derived); test: Effect of ACE on papain-generated peptides: hydrolysis of peptides by ACE followed by RP-HPLC; format: in vitro ADME, rabbit; details: rabbit, isolated ACE (angiotensin-converting enzyme) solution; incubation with ACE 37 °C, 1 h; read-out: Cleavage (%)
Residues, ends and D or L forms follow the SMILES beside them.
VALUE KIND: metabolised at 1 h (%)

I. CC[C@H](C)[C@H](NC(=O)CN)C(=O)N[C@@H](Cc1ccccc1)C(=O)N[C@@H](CCC(=O)O)C(=O)O [GIFE] (H-GIFE-OH; N-terminus and C-terminus assumed)
II. CC[C@H](C)[C@H](NC(=O)CNC(=O)CN)C(=O)N[C@@H](Cc1ccccc1)C(=O)O [GGIF] (H-GGIF-OH; N-terminus and C-terminus assumed)
In: Param pair: I , II . Output: the one whose metabolised at 1 h is numerically greater. State the label of the item chosen.
Out: II

----------
molecular target: angiotensin-I-converting enzyme from rabbit lung (Oryctolagus cuniculus, UniProt P12822); construct: the angiotensin-I-converting enzyme from rabbit lung (2 units/mg protein); purchased Sigma Chemical Co. (St. Louis, MO, USA); host or cells: rabbit lung (tissue-derived); assay: ACE inhibitory activity evaluation (HHL substrate, hippuric acid read at 410 nm); type: biochemical
No end group written: not given here.
VALUE KIND: pIC50
Please keep in mind that pIC50 is minus log10 of the molar concentration; only the number is needed.

In: Lookup: pIC50 / angiotensin-I-converting enzyme from rabbit lung (Oryctolagus cuniculus, UniProt P12822) / YGIKVGYAIP [YGIKVGYAIP]
Out: 6.00

----------
target: ACE (Oryctolagus cuniculus); construct: the angiotensin-I-converting enzyme from rabbit lung (2 units/mg protein); purchased Sigma Chemical Co. (St. Louis, MO, USA); host or cells: rabbit lung (tissue-derived); assay: Effect of ACE on papain-generated peptides: hydrolysis of peptides by ACE followed by RP-HPLC; assay type: in vitro ADME, rabbit; details: rabbit, isolated ACE (angiotensin-converting enzyme) solution; incubation with ACE 37 °C, 3 h; read-out: Cleavage (%)
No end group written: not given here.
VALUE KIND: metabolised at 3 h (%)
// units = %; emit number, no label

In: Endpoint output: metabolised at 3 h of YGIKVGYAIP [YGIKVGYAIP] . Value?
Out: 98

----------
Target: ACE (Oryctolagus cuniculus, UniProt P12822)
Construct: the angiotensin-I-converting enzyme from rabbit lung (2 units/mg protein); purchased Sigma Chemical Co. (St. Louis, MO, USA); host or cells: rabbit lung (tissue-derived)
Sequence (P12822 34-1310): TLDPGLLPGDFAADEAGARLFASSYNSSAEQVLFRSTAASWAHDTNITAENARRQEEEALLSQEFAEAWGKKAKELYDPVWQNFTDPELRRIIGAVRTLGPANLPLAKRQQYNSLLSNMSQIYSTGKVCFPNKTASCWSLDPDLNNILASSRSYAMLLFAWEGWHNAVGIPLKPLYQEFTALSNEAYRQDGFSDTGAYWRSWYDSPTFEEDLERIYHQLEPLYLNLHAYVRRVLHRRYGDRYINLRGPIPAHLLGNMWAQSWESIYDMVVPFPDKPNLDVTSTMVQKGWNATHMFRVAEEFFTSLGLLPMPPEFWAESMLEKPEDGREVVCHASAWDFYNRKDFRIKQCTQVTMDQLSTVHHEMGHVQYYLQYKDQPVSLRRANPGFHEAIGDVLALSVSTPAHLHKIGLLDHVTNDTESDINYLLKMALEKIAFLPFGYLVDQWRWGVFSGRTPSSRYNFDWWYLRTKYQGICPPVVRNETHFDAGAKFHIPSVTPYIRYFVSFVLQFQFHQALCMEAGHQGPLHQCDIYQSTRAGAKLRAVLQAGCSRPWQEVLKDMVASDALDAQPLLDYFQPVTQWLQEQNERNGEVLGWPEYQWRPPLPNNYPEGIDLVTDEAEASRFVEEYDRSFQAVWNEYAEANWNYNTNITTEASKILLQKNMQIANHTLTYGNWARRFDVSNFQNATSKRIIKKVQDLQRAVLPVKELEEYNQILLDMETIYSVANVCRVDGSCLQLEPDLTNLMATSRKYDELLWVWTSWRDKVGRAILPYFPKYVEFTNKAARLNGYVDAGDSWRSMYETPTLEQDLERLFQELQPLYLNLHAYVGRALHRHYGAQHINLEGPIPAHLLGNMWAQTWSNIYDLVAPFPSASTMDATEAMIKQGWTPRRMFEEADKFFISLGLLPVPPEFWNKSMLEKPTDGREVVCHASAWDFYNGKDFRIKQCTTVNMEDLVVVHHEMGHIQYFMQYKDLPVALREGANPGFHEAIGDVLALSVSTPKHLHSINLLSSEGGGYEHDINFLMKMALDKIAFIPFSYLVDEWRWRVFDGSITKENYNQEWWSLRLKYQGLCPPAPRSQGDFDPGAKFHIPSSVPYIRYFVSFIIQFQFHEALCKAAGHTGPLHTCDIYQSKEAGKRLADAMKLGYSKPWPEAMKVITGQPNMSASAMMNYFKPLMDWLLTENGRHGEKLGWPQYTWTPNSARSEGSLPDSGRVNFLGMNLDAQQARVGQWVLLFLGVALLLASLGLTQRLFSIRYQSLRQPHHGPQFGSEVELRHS
Assay: Effect of ACE on papain-generated peptides: hydrolysis of peptides by ACE followed by RP-HPLC
Assay type: in vitro ADME, rabbit
Settings: rabbit, isolated ACE (angiotensin-converting enzyme) solution; incubation with ACE 37 °C, 1 h; read-out: Cleavage (%)
No end group written: not given here.
VALUE KIND: metabolised at 1 h (%)
// units = %; emit number, no label

In: Endpoint output: metabolised at 1 h of YGIKVGYAIP [YGIKVGYAIP] . Value?
Out: 84
